# tested.target: T1, rhesus serum albumin (rhesus, UniProt Q28522 17-600)
# T1 construct: also called RhSA
# test.summary: SPR, single cycle kinetics, pH 7.4
// reported pKd for each item listed
In simple prose, pKd is minus the logarithm base ten of a concentration in moles per litre.

Answered cases to consult:
Query: Read off the recorded pKd for R28-H4 (VHH) VHH: QVQLVESGGGLVQPGGSLRLSCAASGRTFIAYAMGWFRQAPGKEREFVAAITNFAGGTTYYADSVKGRFTISRDNAKTTLYLQMNSLRAEDTAVYYCAADRSAQTMRQVRPVLPYWGQGTLVTVSS
Response: 5.76

Query: Read off the recorded pKd for Rh46-H5 (VHH) VHH: QVQLVESGGGLVQPGGSLRLSCAASTRTFSSYIMGWFRQAPGKERELVAAISWSGRMTHYADSVKGRFTISRDNAKNTVYLQMNSLRAEDTAIYSCAADRTTAWGAPRSQYDSWGQGTLVTVSS
Response: 6.46

---
Query: Read off the recorded pKd for R28-H3 (VHH) VHH: QVQLVESGGGLVQPGGSLRLSCAASGRTFIAYAMGWFRQAPGKEREFVAAITNFAGGTTYYADSVKGRFTISRDNSKNTLYLQMNSLRAEDTAVYYCAADRSAQTMRQVRPVLPYWGQGTLVTVSS
Response: 6.20

Query: Read off the recorded pKd for M75-H5 (VHH) VHH: QVQLVESGGGLVQPGGSLRLSCAASGRTFDNYVMAWFRQAPGKEREFVASISGSGSITNYANSVKDRFTISRDSAKNAIYLQMNSLRAEDTAVYYCAAGSRRTYYREPKFYPSWGQGTLVTVSS
Response: 8.34

Query: Read off the recorded pKd for R11 sdAb (VHH, also called R11 VHH) VHH: QVKLEESGGGLVQAGGSLRLSCVGPGFLLRSNTMGWYRQAPGKERELVAFIRPSGLTNYNDAVQGRFTISRDNAKNTVYLQMNALKPEDTAVYYCHTRPPFQRDSWGQGTQVTVSS
Response: 6.80
